Measured Target: UniProtKB Q9Y6L6
Sequence (Q9Y6L6 whole entry): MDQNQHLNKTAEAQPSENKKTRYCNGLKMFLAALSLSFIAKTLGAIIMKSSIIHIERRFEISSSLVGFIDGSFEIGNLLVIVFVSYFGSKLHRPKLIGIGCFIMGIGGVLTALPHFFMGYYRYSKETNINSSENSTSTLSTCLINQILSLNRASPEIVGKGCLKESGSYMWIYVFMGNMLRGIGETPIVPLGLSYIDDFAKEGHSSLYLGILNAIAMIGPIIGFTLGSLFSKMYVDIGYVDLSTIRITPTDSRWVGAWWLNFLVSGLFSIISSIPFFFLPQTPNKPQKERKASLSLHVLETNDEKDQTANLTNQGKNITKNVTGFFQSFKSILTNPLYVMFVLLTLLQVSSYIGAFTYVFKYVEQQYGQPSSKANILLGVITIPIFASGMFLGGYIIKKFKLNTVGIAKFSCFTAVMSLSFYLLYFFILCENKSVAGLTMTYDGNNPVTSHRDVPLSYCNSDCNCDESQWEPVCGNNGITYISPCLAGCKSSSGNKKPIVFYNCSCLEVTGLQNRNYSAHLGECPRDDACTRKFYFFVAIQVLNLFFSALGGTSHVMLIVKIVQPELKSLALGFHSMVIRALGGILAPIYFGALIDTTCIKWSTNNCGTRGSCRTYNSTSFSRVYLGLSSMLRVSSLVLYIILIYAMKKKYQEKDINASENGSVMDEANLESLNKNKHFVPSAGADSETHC
Assay Text: OATP assay in CHO-OATP1B1 cells;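 also: inhibition of probe substrate uptake into the cells, ten minutes exposure, accumulated substrate read by fluorescence once cells were lysed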
Starred links: 1 amine or outer side, 2 acyl side, 3 side chain; linkers in the order of their positions; H or OH if unused. Non-standard residues stand in square brackets, D forms with d. Residues, ends and D or L forms follow the SMILES beside them. X27 = C[C@H](COCC(=O)N1CCN(C2CCOCC2)CC1)[C@@H](C(=O)[*:2])N(C)[*:1]; X56 = CCN1CCN(C(=O)OC[C@@H](C)[C@@H](C(=O)[*:2])N(C)[*:1])CC1; MeBmt = C/C=C/C[C@@H](C)[C@@H](O)[C@H](NC)C(=O)O; NMeL = CN[C@@H](CC(C)C)C(=O)O; NMeV = CN[C@H](C(=O)O)C(C)C; dNMeA = CN[C@H](C)C(=O)O; Abu = CC[C@H](N)C(=O)O
Measured Quantity: IC50 (nM)

molecule="C/C=C/C[C@@H](C)[C@@H](O)[C@H]1C(=O)N[C@@H](CC)C(=O)N(C)[C@H](C)C(=O)N(C)[C@@H]([C@H](C)COCC(=O)N2CCN(C3CCOCC3)CC2)C(=O)N[C@@H](C(C)C)C(=O)N(C)[C@@H](CC(C)C)C(=O)N[C@@H](C)C(=O)N[C@H](C)C(=O)N(C)[C@@H](CC(C)C)C(=O)N(C)[C@@H](CC(C)C)C(=O)N(C)[C@@H](C(C)C)C(=O)N1C [Compound 2.6.2] (cyclo([MeBmt][Abu][dNMeA][X27]V[NMeL]A[dA][NMeL][NMeL][NMeV]))" measured_number=3500
molecule="C/C=C/C[C@@H](C)[C@@H](O)[C@H]1C(=O)N[C@@H](CC)C(=O)N(C)[C@H](C)C(=O)N(C)[C@@H]([C@H](C)COC(=O)N2CCN(CC)CC2)C(=O)N[C@@H](C(C)C)C(=O)N(C)[C@@H](CC(C)C)C(=O)N[C@@H](C)C(=O)N[C@H](C)C(=O)N(C)[C@@H](CC(C)C)C(=O)N(C)[C@@H](CC(C)C)C(=O)N(C)[C@@H](C(C)C)C(=O)N1C [Compound 2.5.24] (cyclo(A[dA][NMeL][NMeL][NMeV][MeBmt][Abu][dNMeA][X56]V[NMeL]))" measured_number=1900

---

Measured Target: cyclophilin B (CypB) (Homo sapiens (Human), UniProt P23284)
Sequence (P23284 34-216): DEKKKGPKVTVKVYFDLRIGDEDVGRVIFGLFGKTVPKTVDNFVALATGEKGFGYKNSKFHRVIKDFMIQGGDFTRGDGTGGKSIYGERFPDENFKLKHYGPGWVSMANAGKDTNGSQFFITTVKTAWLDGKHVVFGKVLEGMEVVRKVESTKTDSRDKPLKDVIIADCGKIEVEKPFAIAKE
Assay Text: Inhibitor binding to cyclophilin proteins by SPR, CypB
Design: unit not given here
Measurement Conditions: 1:1 binding model
Starred links: 1 amine or outer side, 2 acyl side, 3 side chain; linkers in the order of their positions; H or OH if unused. Non-standard residues stand in square brackets, D forms with d. Residues, ends and D or L forms follow the SMILES beside them. X1 = COC[C@@H]1CN(C[C@H](C)[C@@H](C(=O)[*:2])N(C)[*:1])CCO1; X72 = C[C@H](CCN1CCN(C2CCC2)CC1)[C@@H](C(=O)[*:2])N(C)[*:1]; X43 = COCCN(C)C[C@@H](C)[C@@H](C(=O)[*:2])N(C)[*:1]; MeBmt = C/C=C/C[C@@H](C)[C@@H](O)[C@H](NC)C(=O)O; NMeL = CN[C@@H](CC(C)C)C(=O)O; NMeV = CN[C@H](C(=O)O)C(C)C; dNMeA = CN[C@H](C)C(=O)O; Abu = CC[C@H](N)C(=O)O
Measured Quantity: CypB Kd

compound="C/C=C/C[C@@H](C)[C@@H](O)[C@H]1C(=O)N[C@@H](CC)C(=O)N(C)[C@H](C)C(=O)N(C)[C@@H]([C@@H](C)CN2CCO[C@H](COC)C2)C(=O)N[C@@H](C(C)C)C(=O)N(C)[C@@H](CC(C)C)C(=O)N[C@@H](C)C(=O)N[C@H](C)C(=O)N(C)[C@@H](CC(C)C)C(=O)N(C)[C@@H](CC(C)C)C(=O)N(C)[C@@H](C(C)C)C(=O)N1C [Compound 2.17.11] (cyclo(A[dA][NMeL][NMeL][NMeV][MeBmt][Abu][dNMeA][X1]V[NMeL]))" measured_quantity="CypB Kd" result=0.7
compound="C/C=C/C[C@@H](C)[C@@H](O)[C@H]1C(=O)N[C@@H](CC)C(=O)N(C)[C@H](C)C(=O)N(C)[C@@H]([C@H](C)CCN2CCN(C3CCC3)CC2)C(=O)N[C@@H](C(C)C)C(=O)N(C)[C@@H](CC(C)C)C(=O)N[C@@H](C)C(=O)N[C@H](C)C(=O)N(C)[C@@H](CC(C)C)C(=O)N(C)[C@@H](CC(C)C)C(=O)N(C)[C@@H](C(C)C)C(=O)N1C [Compound 2.18.10] (cyclo(A[dA][NMeL][NMeL][NMeV][MeBmt][Abu][dNMeA][X72]V[NMeL]))" measured_quantity="CypB Kd" result=1.1
compound="C/C=C/C[C@@H](C)[C@@H](O)[C@H]1C(=O)N[C@@H](CC)C(=O)N(C)[C@H](C)C(=O)N(C)[C@@H]([C@H](C)CN(C)CCOC)C(=O)N[C@@H](C(C)C)C(=O)N(C)[C@@H](CC(C)C)C(=O)N[C@@H](C)C(=O)N[C@H](C)C(=O)N(C)[C@@H](CC(C)C)C(=O)N(C)[C@@H](CC(C)C)C(=O)N(C)[C@@H](C(C)C)C(=O)N1C [Compound 2.5.22] (cyclo(A[dA][NMeL][NMeL][NMeV][MeBmt][Abu][dNMeA][X43]V[NMeL]))" measured_quantity="CypB Kd" result=0.9

Data origin, for the record: patent US9566312B2
